Each recorded value in this set is attributed to ChEMBL document CHEMBL1795286.

Measured MIC accompanies every entry in the list below.
Test system: Staphylococcus aureus
Test: Antimicrobial activity against Staphylococcus aureus 241 after 18 hrs by twofold agar dilution method
Format: functional
Details: Staphylococcus aureus, 241, 18 h; read-out: MIC
Give the number; µg/mL is assumed, so skip it.

Task: Consider the molecule shown here: C[C@H](CO)[C@H]1CC[C@H]2[C@@H]3CC[C@@H]4C[C@@H](NCCCNCCCCN)CC[C@]4(C)[C@H]3CC[C@]12C.Cl.Cl.Cl What is its recorded MIC?
Output: 8

Task: Consider the molecule shown here: C[C@H](CO)[C@H]1CC[C@H]2[C@@H]3CC[C@H]4C[C@H](NCCCNCCCCN)CC[C@]4(C)[C@H]3CC[C@]12C.Cl.Cl.Cl What is its recorded MIC?
Output: 4

Task: Consider the molecule shown here: C[C@H](CO)[C@H]1CC[C@H]2[C@@H]3CC[C@H]4C[C@@H](NCCCNCCCCN)CC[C@]4(C)[C@H]3CC[C@]12C.Cl.Cl.Cl What is its recorded MIC?
Output: 8

----------
Measured MIC accompanies every entry in the list below.
Test system: Enterobacter cloacae
Assay: Antimicrobial activity against Enterobacter cloacae ATCC 27508 after 18 hrs by twofold agar dilution method
Type: functional
Conditions: ATCC 27508, 18 h

Here is how some molecules turned out for MIC.
Smiles	Tested on	MIC
C[C@H](CO)[C@H]1CC[C@H]2[C@@H]3CC[C@H]4C[C@@H](NCCCNCCCCN)CC[C@]4(C)[C@H]3CC[C@]12C.Cl.Cl.Cl	Enterobacter cloacae	> 32 µg/mL
C[C@H](CO)[C@H]1CC[C@H]2[C@@H]3[C@H](O)C[C@H]4C[C@@H](NCCCNCCCCN)CC[C@]4(C)[C@H]3CC[C@]12C.Cl.Cl.Cl	Enterobacter cloacae	> 32 µg/mL

Task: Consider the molecule shown here: C[C@H](CO)[C@H]1CC[C@H]2[C@@H]3CC[C@@H]4C[C@H](NCCCNCCCCN)CC[C@]4(C)[C@H]3CC[C@]12C.Cl.Cl.Cl What is its recorded MIC?
Output: > 32 µg/mL

----------
Tested on: Klebsiella aerogenes
Assay: Antimicrobial activity against Klebsiella aerogenes harboring beta-lactamase SHV-1 1976E mutant after 18 hrs by twofold agar dilution method
Format: functional
Measure: MIC

Smiles	Result
C[C@H](CO)[C@H]1CC[C@H]2[C@@H]3CC[C@H]4C[C@H](NCCCNCCCCNCCCN)CC[C@]4(C)[C@H]3CC[C@]12C.Cl.Cl.Cl.Cl	> 32 µg/mL

Here is the next item to consider.
Task: Consider the compound shown here: C[C@H](CO)[C@H]1CC[C@H]2[C@@H]3CC[C@@H]4C[C@@H](NCCCNCCCCNCCCN)CC[C@]4(C)[C@H]3CC[C@]12C.Cl.Cl.Cl.Cl What is its recorded MIC?
Output: > 32 µg/mL

----------
Tested on: Klebsiella aerogenes
Test: Antimicrobial activity against Klebsiella aerogenes harboring beta-lactamase SHV-1 1976E mutant after 18 hrs by twofold agar dilution method
Format: functional
Measure: MIC

Smiles	Tested on	MIC
C[C@H](CO)[C@H]1CC[C@H]2[C@@H]3CC[C@@H]4C[C@H](NCCCNCCCCNCCCN)CC[C@]4(C)[C@H]3CC[C@]12C.Cl.Cl.Cl.Cl	Klebsiella aerogenes	> 32 µg/mL
C[C@H](CO)[C@H]1CC[C@H]2[C@@H]3CC[C@H]4C[C@@H](NCCCNCCCCNCCCN)CC[C@]4(C)[C@H]3CC[C@]12C.Cl.Cl.Cl.Cl	Klebsiella aerogenes	> 32 µg/mL

Here is the next item to consider.
Task: Consider the compound shown here: C[C@H](CO)[C@H]1CC[C@H]2[C@@H]3[C@H](O)C[C@H]4C[C@@H](NCCCNCCCCN)CC[C@]4(C)[C@H]3CC[C@]12C.Cl.Cl.Cl What is its recorded MIC?
Output: > 32 µg/mL
